Source of measurements: patent US20220235006A1

- Target Entity: human TMEM16A (TMEM16Aabc variant) (Homo sapiens, UniProt Q5XXA6, DEL476-501)
- Sequence (Q5XXA6 with tags, fused parts or gaps isoform Q5XXA6-5 DEL539-564): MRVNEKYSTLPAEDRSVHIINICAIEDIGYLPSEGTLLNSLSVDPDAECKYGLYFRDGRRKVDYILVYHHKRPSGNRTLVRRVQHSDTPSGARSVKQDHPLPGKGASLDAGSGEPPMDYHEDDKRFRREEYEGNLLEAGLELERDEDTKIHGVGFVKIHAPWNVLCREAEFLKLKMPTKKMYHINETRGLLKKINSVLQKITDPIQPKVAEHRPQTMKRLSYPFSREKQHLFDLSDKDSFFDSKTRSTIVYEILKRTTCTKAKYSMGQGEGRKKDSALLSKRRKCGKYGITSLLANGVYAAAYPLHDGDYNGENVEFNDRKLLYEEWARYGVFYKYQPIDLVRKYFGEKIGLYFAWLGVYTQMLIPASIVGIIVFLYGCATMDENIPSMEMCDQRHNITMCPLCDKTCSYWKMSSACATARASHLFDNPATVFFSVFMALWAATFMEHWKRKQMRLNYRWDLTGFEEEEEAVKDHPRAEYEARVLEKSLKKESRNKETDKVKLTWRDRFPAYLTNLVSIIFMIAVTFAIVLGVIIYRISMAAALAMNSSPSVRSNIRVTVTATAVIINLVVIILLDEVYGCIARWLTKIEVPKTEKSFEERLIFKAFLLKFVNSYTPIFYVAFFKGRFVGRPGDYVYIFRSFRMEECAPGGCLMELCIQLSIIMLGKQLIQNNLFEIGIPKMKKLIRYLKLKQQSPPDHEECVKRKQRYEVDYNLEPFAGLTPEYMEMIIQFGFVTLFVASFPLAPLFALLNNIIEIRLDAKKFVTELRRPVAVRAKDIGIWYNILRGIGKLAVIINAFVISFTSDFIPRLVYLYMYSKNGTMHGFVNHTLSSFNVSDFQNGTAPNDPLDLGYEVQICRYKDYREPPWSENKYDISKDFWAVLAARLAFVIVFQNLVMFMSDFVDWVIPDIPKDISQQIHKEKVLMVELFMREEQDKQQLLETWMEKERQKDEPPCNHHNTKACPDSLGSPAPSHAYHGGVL
- Assay Name: Automated whole-cell patch clamp (Qpatch) TMEM16A potentiator assay in recombinant FRT cells
- Type: cell-based
- Particulars: 3.33 uM, percentage increase of baseline TMEM16A current, minimum n = 2, read-out: % Potentiation @ 3.33 uM Avg
Measured Metric: activation at 3.33 µM (%)
The reply should contain only the number, in %.

compound=CC(C)(C#N)NC(=O)c1cc(NC(=O)Cc2cc(O)c(C(C)(C)C)cc2F)ccn1 reading=200
compound=CC1(NC(=O)c2cc(NC(=O)Cc3cc(O)c(C(C)(C)CO)cc3F)ccn2)CC(F)(F)C1 reading=113
compound="CC(C#N)(CO)NC(=O)c1cc(NC(=O)Cc2cc(O)c(C(C)(C)C)cc2F)ccn1 (stereo not drawn)" reading=121
compound="CC(C)(C#N)NC(=O)c1cc(NC(=O)Cc2cc(O)c(C3(C(F)(F)F)CCO3)cc2F)ccn1 (stereo not drawn)" reading=122
compound="CC(CO)c1cc(F)c(CC(=O)Nc2ccnc(C(=O)NC3(C)CCOCC3)c2)cc1O (stereo not drawn)" reading=140

Pending compound:
Test system human TMEM16A (TMEM16Aabc variant) (Homo sapiens, UniProt Q5XXA6, DEL476-501); read-out activation at 3.33 µM; what value for CC(C)(C#N)NC(=O)c1cc(NC(=O)Cc2ccc(C(C)(C)C)c(O)c2)ccn1 [93.4 of PCT/GB2019/050209, reference compound] ?
476
